log10 of IC50: recorded values
Biological target: APE1 (Homo sapiens)
Construct: made in house
Sequence (P27695 whole entry): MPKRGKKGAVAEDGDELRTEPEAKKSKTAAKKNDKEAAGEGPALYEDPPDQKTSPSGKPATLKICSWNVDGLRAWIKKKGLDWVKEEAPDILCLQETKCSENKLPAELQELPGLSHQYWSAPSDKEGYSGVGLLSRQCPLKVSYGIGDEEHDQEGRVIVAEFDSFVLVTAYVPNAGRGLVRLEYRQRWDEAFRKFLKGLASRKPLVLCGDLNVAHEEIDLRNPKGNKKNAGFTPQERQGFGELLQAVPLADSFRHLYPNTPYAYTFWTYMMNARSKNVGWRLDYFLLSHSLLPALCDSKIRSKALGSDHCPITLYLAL
Assay: Fluorogenic kinetic qHTS APE1 incision assay (primary screen and retest of cherrypicked samples);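 further: purified APE1 cleaving a fluorophore/dark-quencher labelled 17-mer duplex DNA bearing a tetrahydrofuran AP site, fluorescence rise followed kinetically over the first 2 min, inhibition normalized to controls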
Assay type: biochemical
Conditions: retest of cherrypicked sample; read-out: APE1 Retest IC50
Lab note - IC50 converted to log10 from values in µM.

Below, each entry is followed by its recorded log10 of IC50 result.
CCOC(=O)C1CCN(/C=C2/C(=O)NC(=O)N(Cc3ccco3)C2=O)CC1 | 0.51
COc1cc(O)c2c(c1)oc(=O)c1c3cc(O)c(O)cc3oc21 | 0.64
CC(C)(C)OC(=O)C[C@@H]1C/C=C\C[C@H](CC(=O)NCCO)C(=O)N2CCC[C@H]2COC1=O | 1.31
O=C(O)C1CCCCC1C(=O)Nc1cccc(Br)c1 (stereo not shown) | 0.71
NC(Cc1ccc(O)c(O)c1)C(=O)O (stereo not shown) | -1.00

## Task Please tell me: log10 of IC50 of `O=C(CSc1nc2sc3c(c2c(=O)n1-c1ccccc1)CCCC3)NN=Cc1ccccc1C(=O)O` , system APE1 (Homo sapiens)?
## Result 1.16

## Task Please tell me: log10 of IC50 of CC(C(=O)O)N1C(=O)/C(=C/C=C/c2ccco2)SC1=S (stereo not shown) , system APE1 (Homo sapiens)?
## Result -0.05

## Task Please tell me: log10 of IC50 of `COc1ccc2c(c1)c(=O)oc1cc(OCC(=O)N3CCc4ccccc4C3)ccc12` , system APE1 (Homo sapiens)?
## Result 0.59

## Task Please tell me: log10 of IC50 of `CCn1c(SCC(=O)O)nc2sc3c(c2c1=O)CCC3` , system APE1 (Homo sapiens)?
## Result 1.10

## Task Please tell me: log10 of IC50 of `COCCN(CC(=O)Nc1cccc(C)c1C)C(=O)c1cc2c(s1)CCC2` , system APE1 (Homo sapiens)?
## Result 1.26

## Task Please tell me: log10 of IC50 of `Cn1cnnc1SCC(=O)Nc1nc(-c2ccccc2)cs1` , system APE1 (Homo sapiens)?
## Result 1.00

## Task Please tell me: log10 of IC50 of `CC(=O)Nc1sc2c(c1-c1nc3ccccc3s1)CCN(C(C)C)C2` , system APE1 (Homo sapiens)?
## Result 0.59

## Task Please tell me: log10 of IC50 of `COc1ccc(C(=O)Nc2ccnn2C2CCN(Cc3ccc4nonc4c3)CC2)cc1` , system APE1 (Homo sapiens)?
## Result 1.01

## Task Please tell me: log10 of IC50 of COc1ccc(C(CC(=O)N2CCCCC2)c2c(OC)cc(OC)c3c(-c4ccccc4)cc(=O)oc23)cc1 (stereo not shown) , system APE1 (Homo sapiens)?
## Result 0.90

## Task Please tell me: log10 of IC50 of `Nc1c(S(=O)(=O)O)cc(NC(=O)c2ccccc2)c2c1C(=O)c1ccccc1C2=O` , system APE1 (Homo sapiens)?
## Result 1.26

## Task Please tell me: log10 of IC50 of `Cc1ccc(S(=O)(=O)Nc2csc(C)c2C(=O)O)cc1` , system APE1 (Homo sapiens)?
## Result 1.20
